Biological target: Cav2.3 (Homo sapiens, UniProt Q15878)
Sequence (Q15878 whole entry, looked up): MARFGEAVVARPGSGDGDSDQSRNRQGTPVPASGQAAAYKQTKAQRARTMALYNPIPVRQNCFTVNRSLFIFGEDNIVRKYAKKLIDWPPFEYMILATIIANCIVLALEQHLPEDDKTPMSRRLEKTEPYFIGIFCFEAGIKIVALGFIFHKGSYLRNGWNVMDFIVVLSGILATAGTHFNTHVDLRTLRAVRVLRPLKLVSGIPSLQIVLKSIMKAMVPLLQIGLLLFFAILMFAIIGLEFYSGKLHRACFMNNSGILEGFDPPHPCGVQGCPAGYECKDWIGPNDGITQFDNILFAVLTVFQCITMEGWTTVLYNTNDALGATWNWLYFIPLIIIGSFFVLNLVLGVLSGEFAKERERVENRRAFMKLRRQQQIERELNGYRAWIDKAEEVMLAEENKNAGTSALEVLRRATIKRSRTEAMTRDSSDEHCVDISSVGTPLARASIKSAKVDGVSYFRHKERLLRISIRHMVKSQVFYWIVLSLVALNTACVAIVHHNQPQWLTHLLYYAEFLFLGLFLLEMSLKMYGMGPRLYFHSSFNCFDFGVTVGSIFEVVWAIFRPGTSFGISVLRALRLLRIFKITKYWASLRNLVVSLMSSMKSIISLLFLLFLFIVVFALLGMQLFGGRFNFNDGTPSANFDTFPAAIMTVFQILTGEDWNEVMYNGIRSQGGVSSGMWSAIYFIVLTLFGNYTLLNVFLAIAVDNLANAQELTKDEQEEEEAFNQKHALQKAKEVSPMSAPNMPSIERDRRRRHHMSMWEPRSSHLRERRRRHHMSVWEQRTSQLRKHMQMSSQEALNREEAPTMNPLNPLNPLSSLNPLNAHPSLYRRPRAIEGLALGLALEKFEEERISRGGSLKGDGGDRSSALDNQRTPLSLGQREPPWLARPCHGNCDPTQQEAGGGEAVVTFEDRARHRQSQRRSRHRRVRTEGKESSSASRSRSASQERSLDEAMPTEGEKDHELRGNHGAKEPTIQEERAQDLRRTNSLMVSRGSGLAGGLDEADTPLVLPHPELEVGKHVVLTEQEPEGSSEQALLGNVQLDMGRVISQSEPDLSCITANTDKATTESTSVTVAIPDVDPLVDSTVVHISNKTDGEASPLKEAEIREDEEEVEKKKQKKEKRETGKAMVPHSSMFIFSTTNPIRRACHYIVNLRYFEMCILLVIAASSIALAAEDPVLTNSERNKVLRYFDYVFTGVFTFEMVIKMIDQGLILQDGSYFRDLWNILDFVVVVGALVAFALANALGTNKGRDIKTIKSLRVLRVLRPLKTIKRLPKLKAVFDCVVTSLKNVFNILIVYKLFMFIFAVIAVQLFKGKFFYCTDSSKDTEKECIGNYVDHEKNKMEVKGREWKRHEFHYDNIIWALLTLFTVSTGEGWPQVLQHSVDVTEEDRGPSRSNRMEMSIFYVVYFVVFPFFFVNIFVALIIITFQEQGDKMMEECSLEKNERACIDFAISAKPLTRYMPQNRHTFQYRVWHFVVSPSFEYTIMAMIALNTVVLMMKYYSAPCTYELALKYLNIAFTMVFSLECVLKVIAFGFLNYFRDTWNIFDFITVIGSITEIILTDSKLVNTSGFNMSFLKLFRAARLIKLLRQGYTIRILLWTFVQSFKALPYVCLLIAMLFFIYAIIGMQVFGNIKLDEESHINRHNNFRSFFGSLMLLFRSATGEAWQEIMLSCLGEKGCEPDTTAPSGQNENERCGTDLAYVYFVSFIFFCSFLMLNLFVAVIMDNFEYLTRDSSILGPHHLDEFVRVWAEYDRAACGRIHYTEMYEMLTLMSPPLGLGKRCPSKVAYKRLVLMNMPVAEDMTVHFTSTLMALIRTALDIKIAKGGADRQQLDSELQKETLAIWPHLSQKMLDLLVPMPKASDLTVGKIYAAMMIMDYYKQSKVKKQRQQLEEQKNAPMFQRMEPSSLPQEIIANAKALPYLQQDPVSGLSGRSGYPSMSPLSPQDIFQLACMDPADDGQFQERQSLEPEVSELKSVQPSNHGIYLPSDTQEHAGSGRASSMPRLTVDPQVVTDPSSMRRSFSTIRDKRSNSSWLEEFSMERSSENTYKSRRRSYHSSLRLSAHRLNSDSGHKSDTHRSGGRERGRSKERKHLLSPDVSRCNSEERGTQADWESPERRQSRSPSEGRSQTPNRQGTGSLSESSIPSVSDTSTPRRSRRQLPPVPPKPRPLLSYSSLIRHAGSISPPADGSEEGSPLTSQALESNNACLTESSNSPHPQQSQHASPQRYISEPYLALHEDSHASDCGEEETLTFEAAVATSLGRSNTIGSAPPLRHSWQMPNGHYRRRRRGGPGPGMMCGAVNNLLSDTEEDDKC
Test: Human Cav2.3 channel calcium-influx assay
Format: cell-based
Details: Fluo8 fluorescence, HEK-293 T-Rex/Kir2.1/Cav2.3e cells, without pluronic acid, read-out: Cav2.3 (pIC50) (converted)
Description: HEK-293 T-Rex cells were transfected with pcDNA3.1-Kir2.1 to generate a stable cell line. After antibiotic selection, the obtained stable pools were analysed using FLIPR^TETRA (membrane potential assay), and a limiting dilution was performed and a HEK-293 T-Rex/Kir2.1 clone was selected. […] Data analysis was performed with Genedata Screener® software and reported compounds activity as % effect in relation to the normalization standards. The Kinetic Response Value (KRV) is calculated as follows: […]
QUANTITY_NAME: IC50 (nM)
Respond with the bare value in nM.

CCN([C@H](c1ccc(F)cc1)C(F)(F)F)S(=O)(=O)c1cnc2[nH]nnc2c1 ... 794
CN([C@@H](c1ccc(C(F)(F)F)cc1)C(F)(F)F)S(=O)(=O)c1cncc(C#N)c1 ... 5620
CCN([C@H](c1ccc(F)cc1)C(F)(F)F)S(=O)(=O)c1ccc2sc(N)nc2c1 ... 1910
CCN([C@H](c1ccc(F)cc1)C(F)(F)F)S(=O)(=O)c1ccc2ncn(C)c2c1 ... 174
CN([C@@H](c1ccc(F)cc1)C(F)(F)F)S(=O)(=O)c1cncc(C#N)c1 ... 1480

### Prompt Quick one: give measured IC50 for CCN(C(c1ccc(F)cc1)C(F)(F)F)S(=O)(=O)c1cncc(C(N)=O)c1 (stereo in doubt) [Example 52]
### Response 95.5

### Prompt Quick one: give measured IC50 for CCN([C@H](c1ccc(OC)cc1)C(F)(F)F)S(=O)(=O)C1CCOCC1
### Response 309

### Prompt Quick one: give measured IC50 for CCN(C(c1ccc(F)cc1)C(F)(F)F)S(=O)(=O)c1cncc(C(N)=O)c1 (stereo in doubt) [Example 53]
### Response 1780
